# Test system: EKVX
# procedure-text: NCI tumour cell line growth inhibition, 48 h
Activity calls are given as the source filed them. Cut-off read from the data, not from the text of the source: active = GI50 up to about 1.1 µM and inactive = higher.
value-type: GI50

Previously resolved entries follow.
Cc1cc(C(=O)CBr)c(CN2C(=O)c3ccccc3C2=O)c(=O)n1C :: 2.21 µM (inactive)
CC(C)(C)OC(=O)/C=C/C(=O)O/C=C/[N+](=O)[O-] :: > 100 µM (inactive)
O=C1c2cccc3cc([N+](=O)[O-])cc(c23)C(=O)N1O :: 47.9 µM (inactive)
CCCCN(C)CC(C(C)=O)C(c1ccccc1)c1c(O)c2ccccc2oc1=O (stereo not drawn) :: > 100 µM (inactive)
CC(=O)C1C(=O)C(=O)N(c2ccccc2N2C(=O)C(=O)C(C(C)=O)C2=O)C1=O (stereo not drawn) :: 39.9 µM (inactive)
CC12CCC(=O)C=C1CCC1C2CCC2(C)C(C(=O)Cn3cnc4c(=S)nc[nH]c43)CCC12 (stereo not drawn) :: 41.5 µM (inactive)

Lab note: compound `CC1=C(C(=O)Nc2ccc(C)cc2)C(c2cccc([N+](=O)[O-])c2)C(C(=O)Nc2ccc(C)cc2)=C(C)N1` tested on EKVX; recorded GI50 was 17.1 µM (inactive)

Lab note: compound CC(C)c1ccc(/C=C2\CSCC3=C2N=C(S)NC3c2ccc(C(C)C)cc2)cc1 (stereo not drawn) tested on EKVX; recorded GI50 was 61.8 µM (inactive)

###

# System: EKVX
# procedure-text: NCI tumour cell line growth inhibition, 48 h
Active and inactive are the calls of the source. Rule as the data show it: active = GI50 up to about 1.1 µM and inactive = higher.
Respond with a class label; see active, inactive

Observe how each entry below is paired with its result.
Nc1cc(F)ccc1CC(=O)O :: inactive
O=C(Nc1ccc2ncccc2c1)c1cc2c(cc1Cl)Sc1nccn1S2(=O)=O :: inactive

Now consider a different compound.
Entry `CN(C)CCNC(=O)c1ccc(NCCCN(C)CCCNc2ccc3c(=O)n(CCN(C)C)c(=O)n4c5ccccc5c(=O)c2c34)c2c(O)c3ccccc3nc12` : call = ?
active

###

GI50 reference
# Tested on: SK-MEL-5
# procedure-text: NCI tumour cell line growth inhibition, 48 h
The source made the active and inactive calls. Rule as the data show it: active = GI50 up to about 1.1 µM and inactive = higher.

Previously resolved entries follow.
CC1=C(C(=O)NNC(=O)c2ccccc2O)CC(C(=O)NNC(=O)c2ccccc2O)=C(C)N1 :: 2.06 µM (inactive)
C=C[C@]1(C)CCC2=C(CCC3C2(C)CCC[C@@]3(C)COC(C)=O)C1 (stereo partly specified) :: 16.9 µM (inactive)
Cc1c2cccc-2c(OCCOC(=O)n2ccnc2)cc2c1[nH]c1ccccc12 :: 2.42 µM (inactive)
O=C1Nc2ccc(Br)cc2/C1=N/c1ccc(Cl)cc1 :: 4.15 µM (inactive)

Documented GI50 of `O=[N+]([O-])/C(C(Cl)=C(Cl)Cl)=C1\Nc2ccccc2O1` : > 100 µM (inactive)

Documented GI50 of Cc1ccc(NC(=O)C(=O)C(C#N)c2nc(-c3ccc(-c4ccccc4)cc3)cs2)c(C)c1 (stereo unspecified) : > 100 µM (inactive)

###

# System: A549
# procedure-text: NCI tumour cell line growth inhibition, 48 h
Calls of active or inactive are those of the source. Rule as the data show it: active = GI50 up to about 1.1 µM and inactive = higher.
value-type: GI50

Previously resolved entries follow.
Cc1cc2nc3[nH]c4c(Cl)cc(Cl)cc4c3nc2cc1C :: > 100 µM (inactive)
CC1CC2(CC[C@@H]1O)OCCO2 (stereo not given in full) :: > 100 µM (inactive)
Cc1cn(CCCCOC(=O)NC(CCCNC(=N)N)C(=O)O)c(=O)[nH]c1=O (stereo not given) :: > 100 µM (inactive)
CCC(=O)NCC1CCCN2CCCCC12 (stereo not given) :: > 100 µM (inactive)
Oc1cc(-c2ccc(Cl)cc2)nc2ncccc12 :: 54.2 µM (inactive)
CC(=N\N=C\c1ccccn1)/C(C)=N/N=C(C)/C(C)=N/N=C/c1ccccn1 :: > 100 µM (inactive)
CC(C)=CC(C(O)c1ccccc1)S(=O)(=O)c1nccn1C (stereo not given) :: > 100 µM (inactive)
COc1ccc(CNc2nc3ccccc3nc2C(=O)O)cc1 :: > 100 µM (inactive)
O=C1C[C@H]2[C@H](c3ccc(Br)cc3)[C@H]3C(=O)c4ccccc4NC(=O)[C@@H]3[C@@]2(O)c2ccccc2N1 :: 11.6 µM (inactive)
C=C1C2CC3CCC2C(OC(=O)c2ccccc2C(=O)O)C13 (stereo not given) :: > 100 µM (inactive)

Documented GI50 of `CCOC(=O)C(=O)Nc1ccc(Cl)c(C(F)(F)F)c1` : > 100 µM (inactive)

Documented GI50 of `Cc1cccc(C)c1NC(=O)C(=O)CC(=O)CO` : > 100 µM (inactive)

Documented GI50 of `CC(=O)Oc1cc(OC(C)=O)c2c(=O)c3ccccc3[nH]c2c1` : 61.9 µM (inactive)

Documented GI50 of `CC(C)C1=Cc2ccc3c(c2C(=O)C1=O)CCCC3` : 5.96 µM (inactive)

Documented GI50 of Cc1c(N)nc([C@H](CC(N)=O)NC[C@H](N)C(N)=O)nc1C(=O)N[C@H](C(=O)N[C@H](C)[C@@H](O)CC(=O)N[C@H](C(=O)NC(O[C@@H]1O[C@@H](C)[C@@H](N)[C@@H](O)[C@H]1O)C(O)c1nc(-c2nc(C(=O)NCCCCN)cs2)cs1)[C@@H](C)O)[C@@H](O[C@@H]1O[C@@H](CO)[C@@H](O)[C@H](O)[C@@H]1O[C@H]1O[C@H](CO)[C@@H](O)[C@H](OC(N)=O)[C@@H]1O)c1c[nH]cn1 (stereo not given in full) : 18.7 µM (inactive)

Documented GI50 of `CC(C)(C)c1nc2c(o1)/C(=N\c1ccccc1)c1ccccc1C2=O` : 7.6 µM (inactive)

Documented GI50 of CC(=O)C1C(=O)C(=O)N(c2ccccc2N2C(=O)C(=O)C(C(C)=O)C2=O)C1=O (stereo not given) : > 100 µM (inactive)

Documented GI50 of `COc1ccc(/C=C2/CCCC/C2=N/O)cc1` : > 100 µM (inactive)

Documented GI50 of `O=C1Nc2ccc(Br)cc2/C1=N/c1ccc(Cl)cc1` : 25.4 µM (inactive)

Documented GI50 of CC(C)C12Cc3c(ccc4ccccc34)OC1(C)Oc1ccc3ccccc3c1C2 (stereo not given) : > 100 µM (inactive)
